// data source = patent US10399966B2

- test summary: Distribution between mouse plasma and brain (brain penetration, ip)
- Assay type: in vivo
- details: Table 14; mice, single ip dose 5 mg/kg, one hour post-dose; ± SEM of 3 mice (compound 3: 6 mice)
endpoint label: [compound]Brain (µM)
Report only the number, with the unit µM understood.

Consider the following illustrative entries.
O=C(Nc1ccc2sc(-c3ccc(F)c(F)c3)nc2c1)N1CCC(C(F)(F)F)C1 (centres unmarked) [Compound 10] ... 1.97
CN(C)C1CCN(C(=O)Nc2ccc3sc(-c4ccc(F)c(F)c4)nc3c2)C1 (centres unmarked) [Compound 11] ... 3.00
O=C(Nc1ccc2sc(-c3cccc(F)c3)nc2c1)N1CCCC1 [Compound 6] ... 2.28

What [compound]Brain value was documented for this compound, O=C(Nc1ccc2sc(-c3ccc(F)c(F)c3)nc2c1)N1CC[C@@H](F)C1 [Compound 4] ? 6.35
